Recorded pEC50, one value per entry.
System: HIV-1 (NL4-3 strain)
measurement protocol: Multiple round HIV-1 infection assay in MT4-GFP cells (Wild Type Cell Assay)
Format: cell-based
details: Human immunodeficiency virus 1, NL43; 0 % NHS (serum-free); MT4-GFP cells infected with HIV-1 NL4-3; read-out: Wild Type Cell Assay IP
Please keep in mind that pEC50 is minus log10 of the molar concentration; only the number is needed.

Sample answers from the record:
| molecule | measured target | pEC50 |
| --- | --- | --- |
| CCN1C[C@@H]2C[C@@H](OC)c3c(C(=O)NCc4ccc(F)cc4F)c(=O)c(O)c(n32)C1=O (single isomer, unassigned) | HIV-1 (NL4-3 strain) | 9.00 |
| CCN1CC2CCc3c(C(=O)NCc4ccc(F)cc4F)c(=O)c(O)c(n32)C1=O (racemic) | HIV-1 (NL4-3 strain) | 8.59 |
| CCN1CC2CC(OC)c3c(C(=O)NCc4ccc(F)cc4F)c(=O)c(O)c(n32)C1=O (racemic) | HIV-1 (NL4-3 strain) | 8.92 |
| CC(C)N1C[C@@H]2COCc3c(-c4cnn(Cc5ccc(F)cc5F)c4)c(=O)c(O)c(n32)C1=O (single isomer, unassigned) | HIV-1 (NL4-3 strain) | 6.63 |
| CCN1C(=O)c2c(O)c(=O)c(C(=O)NCc3ccc(F)cc3F)c3n2C(CC3)C1OC (racemic) | HIV-1 (NL4-3 strain) | 8.72 |

Data point: CC(C)N1CC2C(=O)N(C)Cc3c(C(=O)NCc4ccc(F)cc4F)c(=O)c(O)c(n32)C1=O (racemic) ; pEC50 = 7.77

Entry CCN1CC2CC(C)c3c(C(=O)NCc4ccc(F)cc4F)c(=O)c(O)c(n32)C1=O (single isomer, unassigned) — recorded pEC50 = 8.92

---

Tested on: HIV-1 (NL4-3 strain)
measurement protocol: Multiple round HIV-1 infection assay in MT4-GFP cells (Wild Type Cell Assay)
Format: cell-based
details: Human immunodeficiency virus 1, NL43; 0 % NHS (serum-free); MT4-GFP cells infected with HIV-1 NL4-3; read-out: Wild Type Cell Assay IP
recorded endpoint: pEC50
Field pEC50 (float): negative decimal logarithm of the concentration in molar.

Consider the worked cases shown below.
| molecule | pEC50 |
| --- | --- |
| CCO[C@@H]1C[C@H]2CN(CC)C(=O)c3c(O)c(=O)c(C(=O)NCc4ccc(F)cc4F)c1n32 (single isomer, unassigned) | 8.72 |
| COCCC(C)N1CC2COCc3c(C(=O)NCc4ccc(F)cc4F)c(=O)c(O)c(n32)C1=O (stereo not shown) | 7.62 |
| CN1CC2COCc3c(C(=O)NCc4ccc(F)cc4F)c(=O)c(O)c(n32)C1=O (racemic) | 8.04 |

HIV-1 (NL4-3 strain) data for COc1ccc(CN2CC3COCc4c(C(=O)NCc5ccc(F)cc5F)c(=O)c(O)c(n43)C2=O)cc1 (racemic) ; its pEC50: 7.64

Bench note, HIV-1 (NL4-3 strain): O=C(NCc1ccc(F)cc1F)c1c2n3c(c(O)c1=O)C(=O)N(Cc1cccnc1)CC3COC2 (racemic) , pEC50 reads 8.02

Short answer on HIV-1 (NL4-3 strain) for CC(C)N1C[C@@H]2COCc3c(-c4nnc(Cc5ccc(F)cc5F)s4)c(=O)c(O)c(n32)C1=O (single isomer, unassigned) , pEC50: 8.30

Test item COCCN1C(=O)c2c(O)c(=O)c(C(=O)NCc3ccc(F)cc3F)c3n2[C@H](CC3)[C@@H]1OC (single isomer, unassigned) ; HIV-1 (NL4-3 strain); reported pEC50 was 8.64

---

Listed next: entries and their corresponding EC50.
Tested on: HIV-1 (NL4-3 strain)
measurement protocol: Multiple round HIV-1 infection assay in MT4-GFP cells (Wild Type Cell Assay)
Format: cell-based
details: Human immunodeficiency virus 1, NL43; 0 % NHS (serum-free); MT4-GFP cells infected with HIV-1 NL4-3; read-out: Wild Type Cell Assay IP
The figure you give is taken to be in nM; do not add the unit.

| molecule | measured target | endpoint unit | EC50 |
| --- | --- | --- | --- |
| CCN1C(=O)c2c(O)c(=O)c(C(=O)NCc3ccc(F)c(Cl)c3)c3n2[C@@H](CC3)[C@H]1OC (single isomer, unassigned) | HIV-1 (NL4-3 strain) | nM | 3.2 |
| COCCN1C[C@H]2C[C@H](OC)c3c(C(=O)NCc4ccc(F)cc4F)c(=O)c(O)c(n32)C1=O (single isomer, unassigned) | HIV-1 (NL4-3 strain) | nM | 2.3 |

Now for another entry.
Sample CNC(=O)c1c2n3c(c(O)c1=O)C(=O)N(Cc1ccc(F)cc1)CC3CC2 (racemic) , system: HIV-1 (NL4-3 strain). Its EC50 is 35

---

We begin with a simple list: items and their reported log10 of EC50.
System: HIV-1 (NL4-3 strain)
measurement protocol: Multiple round HIV-1 infection assay in MT4-GFP cells (Wild Type Cell Assay)
Type: cell-based
details: Human immunodeficiency virus 1, NL43; 0 % NHS (serum-free); MT4-GFP cells infected with HIV-1 NL4-3; read-out: Wild Type Cell Assay IP
Note: values are log10 of EC50 expressed in nM.

Please review the entries below; each comes with its answer.
| compound | measured target | log10 of EC50 |
| --- | --- | --- |
| CCN1CC2CC(O)c3c(C(=O)NCc4ccc(F)cc4F)c(=O)c(O)c(n32)C1=O (racemic) | HIV-1 (NL4-3 strain) | 0.34 |
| CC(C)N1CC2COCc3c(-c4cnn(Cc5ccc(F)cc5F)c4)c(=O)c(O)c(n32)C1=O (racemic) | HIV-1 (NL4-3 strain) | 2.51 |
| O=C(NCc1ccc(F)c(F)c1F)c1c2n3c(c(O)c1=O)C(=O)N(CC1CC1)C[C@H]3CC2 (single isomer, unassigned) | HIV-1 (NL4-3 strain) | 0.49 |

Record CO[C@H](C)CN1C[C@H]2CCc3c(C(=O)NCc4ccc(F)cc4F)c(=O)c(O)c(n32)C1=O (single isomer, unassigned) . Reported log10 of EC50: 0.45

---

Tested on: HIV-1 (NL4-3 strain)
measurement protocol: Multiple round HIV-1 infection assay in MT4-GFP cells (Wild Type Cell Assay)
Type: cell-based
details: Human immunodeficiency virus 1, NL43; 0 % NHS (serum-free); MT4-GFP cells infected with HIV-1 NL4-3; read-out: Wild Type Cell Assay IP
Readings of pEC50 for the listed molecules
Field pEC50 (float): negative decimal logarithm of the concentration in molar.

These solved cases illustrate the format of a correct answer.
| molecule | pEC50 |
| --- | --- |
| O=C(NCc1ccc(F)cc1F)c1c2n3c(c(O)c1=O)C(=O)N(CCC(F)(F)F)C[C@@H]3CC2 (single isomer, unassigned) | 8.42 |
| CCN1CC2CC(C)c3c(C(=O)NCc4ccc(F)c(F)c4F)c(=O)c(O)c(n32)C1=O (single isomer, unassigned) | 8.96 |

Per the records, this molecule ( CO[C@@H]1C[C@H]2CN(CC3CC3)C(=O)c3c(O)c(=O)c(C(=O)NCc4ccc(F)cc4F)c1n32 (single isomer, unassigned) ) has pEC50 equal to 8.64

pEC50 reading for CC(C)N1C[C@@H]2COCc3c(C(=O)NCc4ccc(F)cc4F)c(=O)c(O)c(n32)C1=O (single isomer, unassigned) : 7.89

// sample CC(C)(O)CN1C[C@@H]2CCc3c(C(=O)NCc4ccc(F)c(F)c4F)c(=O)c(O)c(n32)C1=O (single isomer, unassigned) , its pEC50 was 8.42
